- Test system: MCF7
- test-description: Selectivity index, ratio of IC50 for HAF to IC50 for human MCF7 cells
value-type: Ratio IC50
Reply with just the number.

Examples from the recorded data:
compound	Ratio IC50
C=C(C)[C@@H]1CC[C@]2(C(=O)O)CC[C@]3(C)[C@H](CC[C@@H]4[C@@]5(C)CC[C@H](NC(=O)CCC6CCNCC6)C(C)(C)[C@@H]5CC[C@]43C)[C@@H]12	2.4
C=C(C)[C@@H]1CC[C@]2(C(=O)O)CC[C@]3(C)[C@H](CC[C@@H]4[C@@]5(C)CC[C@H](NC(=O)C6CCCNC6)C(C)(C)[C@@H]5CC[C@]43C)[C@@H]12 (stereo partly drawn)	3.4
C=C(C)[C@@H]1CC[C@]2(C(=O)O)CC[C@]3(C)[C@H](CC[C@@H]4[C@@]5(C)CC[C@H](OC(=O)C6CCNCC6)C(C)(C)[C@@H]5CC[C@]43C)[C@@H]12	2.4
C=C(C)[C@@H]1CC[C@]2(C(=O)O)CC[C@]3(C)[C@H](CC[C@@H]4[C@@]5(C)CC[C@H](NC(=O)C6CCNCC6)C(C)(C)[C@@H]5CC[C@]43C)[C@@H]12	8.2
C=C(C)[C@@H]1CC[C@]2(C(=O)O)CC[C@]3(C)[C@H](CC[C@@H]4[C@@]5(C)CC[C@H](O)C(C)(C)[C@@H]5CC[C@]43C)[C@@H]12	1.5
C=C(C)[C@@H]1CC[C@]2(C(=O)O)CC[C@]3(C)[C@H](CC[C@@H]4[C@@]5(C)CC[C@H](NC(=O)CC6CCNCC6)C(C)(C)[C@@H]5CC[C@]43C)[C@@H]12	2.7
C=C(C)[C@@H]1CC[C@]2(C(=O)O)CC[C@]3(C)[C@H](CC[C@@H]4[C@@]5(C)CC[C@H](NC(=O)CCCC6CCNCC6)C(C)(C)[C@@H]5CC[C@]43C)[C@@H]12	1.4

Give the reported Ratio IC50 for C=C(C)[C@@H]1CC[C@]2(C(=O)O)CC[C@]3(C)[C@H](CC[C@@H]4[C@@]5(C)CC[C@H](OC(=O)C6CCCNC6)C(C)(C)[C@@H]5CC[C@]43C)[C@@H]12 (stereo partly drawn) (system: MCF7).
1.2

----------
- Test system: NCI/ADR-RES
- test-description: Selectivity index, ratio of IC50 for HAF to IC50 for human MCF7/ADR cells
Label Satisfied when Ratio IC50 is strictly below 10; at or above that, label Not satisfied.

Take a look at these entries with their results.
compound	class-assignment
C=C(C)[C@@H]1CC[C@]2(C(=O)O)CC[C@]3(C)[C@H](CC[C@@H]4[C@@]5(C)CC[C@H](NC(=O)C6CCNCC6)C(C)(C)[C@@H]5CC[C@]43C)[C@@H]12	Not satisfied
C=C(C)[C@@H]1CC[C@]2(C(=O)O)CC[C@]3(C)[C@H](CC[C@@H]4[C@@]5(C)CC[C@H](OC(=O)C6CCCNC6)C(C)(C)[C@@H]5CC[C@]43C)[C@@H]12 (stereo not given in full)	Satisfied

Bench note: check whether `C=C(C)[C@@H]1CC[C@]2(C(=O)O)CC[C@]3(C)[C@H](CC[C@@H]4[C@@]5(C)CC[C@H](NC(=O)CCC6CCNCC6)C(C)(C)[C@@H]5CC[C@]43C)[C@@H]12` shows Ratio IC50 below 10
Satisfied

Please let me know if C=C(C)[C@@H]1CC[C@]2(C(=O)O)CC[C@]3(C)[C@H](CC[C@@H]4[C@@]5(C)CC[C@H](O)C(C)(C)[C@@H]5CC[C@]43C)[C@@H]12 [BETULINIC ACID] shows Ratio IC50 below 10.
Satisfied

----------
- test-description: Cytotoxicity against human PC3 cells assessed as growth inhibition after 96 hrs by SRB assay
- Assay type: functional, cell-based
- measurement-parameters: PC-3, 96 h
value-type: IC50 (µM)
Entry rule: numbers only, all in µM.

Field request: IC50 | item: `C=C(C)[C@@H]1CC[C@]2(C(=O)O)CC[C@]3(C)[C@H](CC[C@@H]4[C@@]5(C)CC[C@H](NC(=O)CCCC6CCNCC6)C(C)(C)[C@@H]5CC[C@]43C)[C@@H]12`
5.23

----------
- test-description: Cytotoxicity against HAF assessed as growth inhibition after 96 hrs by SRB assay
- measurement-parameters: Homo sapiens
value-type: IC50 (µM)
State the answer as a number, implicitly in µM.

                                 smiles_str  value_type  readout_units  recorded_value
0  C=C(C)[C@@H]1CC[C@]2(C(=O)O)CC[C@]3(C)[C@H](CC[C@@H]4[C@@]5(C)CC[C@H](NC(=O)CCC6CCNCC6)C(C)(C)[C@@H]5CC[C@]43C)[C@@H]12        IC50             µM            6.89
1  C=C(C)[C@@H]1CC[C@]2(C(=O)O)CC[C@]3(C)[C@H](CC[C@@H]4[C@@]5(C)CC[C@H](OC(=O)C6CCNCC6)C(C)(C)[C@@H]5CC[C@]43C)[C@@H]12        IC50             µM             5.7
2  C=C(C)[C@@H]1CC[C@]2(C(=O)O)CC[C@]3(C)[C@H](CC[C@@H]4[C@@]5(C)CC[C@H](O)C(C)(C)[C@@H]5CC[C@]43C)[C@@H]12        IC50             µM            34.5

Would you kindly look at the next entry?
Item under review: `C=C(C)[C@@H]1CC[C@]2(C(=O)O)CC[C@]3(C)[C@H](CC[C@@H]4[C@@]5(C)CC[C@H](NC(=O)CCCC6CCNCC6)C(C)(C)[C@@H]5CC[C@]43C)[C@@H]12` . Reported IC50?
9.15

----------
- Tested on: MCF7
- test-description: Cytotoxicity against human MCF7 cells assessed as growth inhibition after 96 hrs by SRB assay
- Type: functional, cell-based
- measurement-parameters: MCF7, 96 h
Each entry below carries its reported pIC50.
Conceptually, pIC50 converts a concentration in mol/L into minus its log10.

compound	pIC50
C=C(C)[C@@H]1CC[C@]2(C(=O)O)CC[C@]3(C)[C@H](CC[C@@H]4[C@@]5(C)CC[C@H](NC(=O)C6CCCNC6)C(C)(C)[C@@H]5CC[C@]43C)[C@@H]12 (stereo partly specified)	6.03
C=C(C)[C@@H]1CC[C@]2(C(=O)O)CC[C@]3(C)[C@H](CC[C@@H]4[C@@]5(C)CC[C@H](NC(=O)C6CCNCC6)C(C)(C)[C@@H]5CC[C@]43C)[C@@H]12	6.27
CC(=O)O[C@@]12CO[C@@H]1C[C@H](O)[C@@]1(C)C(=O)[C@H](O)C3=C(C)[C@@H](OC(=O)[C@H](O)[C@@H](NC(=O)OC(C)(C)C)c4ccccc4)C[C@@](O)([C@@H](OC(=O)c4ccccc4)[C@H]21)C3(C)C.O.O.O [DOCETAXEL]	8.30
C=C(C)[C@@H]1CC[C@]2(C(=O)O)CC[C@]3(C)[C@H](CC[C@@H]4[C@@]5(C)CC[C@H](O)C(C)(C)[C@@H]5CC[C@]43C)[C@@H]12 [BETULINIC ACID]	4.65
C=C(C)[C@@H]1CC[C@]2(C(=O)O)CC[C@]3(C)[C@H](CC[C@@H]4[C@@]5(C)CC[C@H](NC(=O)C6CCCN6)C(C)(C)[C@@H]5CC[C@]43C)[C@@H]12 (stereo partly specified)	4.82

Can you share its pIC50? I mean this compound: `C=C(C)[C@@H]1CC[C@]2(C(=O)O)CC[C@]3(C)[C@H](CC[C@@H]4[C@@]5(C)CC[C@H](NC(=O)CC6CCNCC6)C(C)(C)[C@@H]5CC[C@]43C)[C@@H]12`
5.46

Dear colleague, I am looking for the recorded pIC50 of the following compound: C=C(C)[C@@H]1CC[C@]2(C(=O)O)CC[C@]3(C)[C@H](CC[C@@H]4[C@@]5(C)CC[C@H](OC(=O)C6CCCNC6)C(C)(C)[C@@H]5CC[C@]43C)[C@@H]12 (stereo partly specified)
5.35

Recorded pIC50 for `C=C(C)[C@@H]1CC[C@]2(C(=O)O)CC[C@]3(C)[C@H](CC[C@@H]4[C@@]5(C)CC[C@H](OC(=O)C6CCNCC6)C(C)(C)[C@@H]5CC[C@]43C)[C@@H]12` , please?
5.62

Look up pIC50: `C=C(C)[C@@H]1CC[C@]2(C(=O)O)CC[C@]3(C)[C@H](CC[C@@H]4[C@@]5(C)CC[C@H](NC(=O)CCC6CCNCC6)C(C)(C)[C@@H]5CC[C@]43C)[C@@H]12`
5.54

Data request, read-out pIC50, for C=C(C)[C@@H]1CC[C@]2(C(=O)O)CC[C@]3(C)[C@H](CC[C@@H]4[C@@]5(C)CC[C@H](NC(=O)C6CCCCN6)C(C)(C)[C@@H]5CC[C@]43C)[C@@H]12 (stereo partly specified)
5.32

Which pIC50 value belongs to `C=C(C)[C@@H]1CC[C@]2(C(=O)O)CC[C@]3(C)[C@H](CC[C@@H]4[C@@]5(C)CC[C@H](NC(=O)CCCC6CCNCC6)C(C)(C)[C@@H]5CC[C@]43C)[C@@H]12` ?
5.19
